For each of the compounds below, state its mortality at 10000 µg/mL.
system: Plutella xylostella; assay: Insecticidal activity against second-instar larvae Plutella xylostella (diamondback moth) in compound treated cabbage leaves assessed as mortality at 10000 ug/mL after 48 hr by leaf dip method; type: functional; conditions: foliar
Give bare numbers, in %.

Input COc1ccc(C(=O)/C=C/c2ccc(Cl)c(Cl)c2)cc1 . Output mortality at 10000 µg/mL: 100

Input COc1ccc(C(=O)/C=C/c2ccc(Cl)cc2)cc1 . Output mortality at 10000 µg/mL: 100

Input O=C(/C=C/c1ccco1)c1ccc([N+](=O)[O-])cc1 . Output mortality at 10000 µg/mL: 23

Input C=CCOc1ccc(C(=O)/C=C/c2ccc(Cl)cc2)cc1 . Output mortality at 10000 µg/mL: 100

Input O=C(/C=C/c1ccc(Cl)c(Cl)c1)c1ccc(Cl)cc1 . Output mortality at 10000 µg/mL: 97.7

// input: 8 compounds below; output: mortality at 10000 µg/mL for each
1. COc1ccc(C(=O)/C=C/c2ccc(F)cc2)cc1
2. O=C(/C=C/c1ccc(Cl)cc1)c1ccc(O)cc1
3. O=C(/C=C/c1ccc(Cl)cc1)c1ccc(Cl)cc1 [4',4-DICHLOROCHALCONE]
4. COc1ccc(/C=C/C(=O)c2ccc(Cl)cc2)cc1
5. COc1ccc(/C=C/C(=O)c2ccc(OC)cc2)cc1 [4,4'-DIMETHOXYCHALCONE]
6. COc1ccccc1C(=O)/C=C/c1ccc(Cl)c(Cl)c1
7. O=C(/C=C/c1ccc(Cl)c(Cl)c1)c1ccc(Cl)c(Cl)c1
8. COc1cc(OC)c(OC)cc1/C=C/C(C)=O

RESULT:
33.3
100
100
50
26.6
63.3
73.3
26.6

// input: 7 compounds below; output: mortality at 10000 µg/mL for each
1. COc1ccc(C(=O)/C=C/c2ccc(Cl)c(Cl)c2)cc1OC
2. Cc1ccc(C(=O)/C=C/c2ccc(Cl)c(Cl)c2)cc1
3. O=C(/C=C/c1ccc(Cl)cc1)c1ccc2c(c1)OCO2
4. COc1ccc(C(=O)/C=C/c2ccc(Cl)cc2Cl)cc1
5. COc1ccc(C(=O)/C=C/c2ccc(Br)cc2)cc1
6. O=C(/C=C/c1ccc(Cl)cc1)c1ccc([N+](=O)[O-])cc1
7. O=C(/C=C/c1cccs1)c1ccc([N+](=O)[O-])cc1

RESULT:
1: 68; 2: 83.3; 3: 23; 4: 100; 5: 10; 6: 26.6; 7: 30

Input COc1ccc(/C=C/C(C)=O)cc1 . Output mortality at 10000 µg/mL: 30
